Subject Of Test: Endothelin-1 receptor (Homo sapiens, UniProt P25101)
Sequence (P25101 whole entry): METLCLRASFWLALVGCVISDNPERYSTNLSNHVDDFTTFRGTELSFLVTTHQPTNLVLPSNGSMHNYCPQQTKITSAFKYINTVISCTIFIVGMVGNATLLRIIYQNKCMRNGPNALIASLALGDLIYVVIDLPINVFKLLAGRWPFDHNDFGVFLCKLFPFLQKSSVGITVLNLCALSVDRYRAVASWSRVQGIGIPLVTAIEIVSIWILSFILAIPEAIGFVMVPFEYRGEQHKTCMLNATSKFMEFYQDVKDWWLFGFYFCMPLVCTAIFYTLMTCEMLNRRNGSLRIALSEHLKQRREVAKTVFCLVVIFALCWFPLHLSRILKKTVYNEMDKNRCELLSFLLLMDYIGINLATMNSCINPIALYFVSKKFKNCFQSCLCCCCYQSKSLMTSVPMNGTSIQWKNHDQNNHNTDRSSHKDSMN
Measurement Protocol: Affinity for human endothelin A receptor expressed in Ltk cells.
Returns: string. Value is Met if measured IC50 is below 9000 nM, and Not met if it is greater than or equal to it.

* COc1cccc(Sc2c(C(=O)O)n(Cc3ccc4c(c3)OCO4)c3cc(OCc4ccccc4)c(OC)cc23)c1 | Not met
* COc1ccc(Sc2c(C(=O)O)n(Cc3ccc4c(c3)OCO4)c3cc4c(cc23)OCO4)cc1OC | Met
* COc1cc2c(Sc3ccc4c(c3)OCO4)c(C(=O)O)n(Cc3ccc4c(c3)OCO4)c2cc1OCc1ccccc1 | Met

Please find the next molecule below.
Does COc1cccc(Sc2c(C(=O)O)n(Cc3ccc4c(c3)OCO4)c3ccccc23)c1 have IC50 strictly under 9000 nM?
Met
